Assay: chemical genetic growth profiling, strain panel (AID 1159580);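 further: tested at 20 µM; growth read once vehicle control cultures reached saturation at 30 °C; 1 = growth at the plate median or of vehicle wells; lower values mean less growth of the strain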
Conditions: S. cerevisiae deletion strains, growth OD, locus YOL012C, strain htz1
Out of some 5,500 compounds screened, about 2,000 (36%) were called active. About 18% were inconclusive and are not listed. Some of the results follow.
reported_endpoint: normalized growth
Answer field: number only, no words.

# compound, normalized growth
records = [
    ("CCN(CC)CCNc1ccc(CO)c2sc3ccccc3c(=O)c12", 0.879),
]

Asked: Recorded normalized growth for CN(C)CCC=C1c2ccccc2CCc2ccccc21 , please?
Given back: 1.09

Asked: Request: O=C(O)/C=C(\CC(=O)O)C(=O)O
Given back: 0.984

Asked: How about this compound: Cc1cc2cc3c(C)cc(=O)oc3c(C)c2o1
Given back: 0.819

Asked: Another compound to look at: COC(=O)C[C@H]1C(C)(C)C(=O)[C@@H]2CC3=C4CC(OC)O[C@@H](c5ccoc5)[C@]4(C)CCC3[C@@]1(C)C2=O (stereo partly specified)
Given back: 1.32

Asked: What about Nc1ccc(C(=O)O)c(O)c1 (tested in a mixture with another compound) ?
Given back: 0.929

Source listed as PubChem BioAssay AID1159580.
